Reported IC50 values follow for various compounds
molecular target: UniProt O88943; test: block of rat KCNQ2 potassium current – cell-based, automated electrophysiology, SAR follow-up (AID 652152); settings: KCNQ2-expressing cells, automated patch-clamp current
Sequence (O88943 whole entry, looked up): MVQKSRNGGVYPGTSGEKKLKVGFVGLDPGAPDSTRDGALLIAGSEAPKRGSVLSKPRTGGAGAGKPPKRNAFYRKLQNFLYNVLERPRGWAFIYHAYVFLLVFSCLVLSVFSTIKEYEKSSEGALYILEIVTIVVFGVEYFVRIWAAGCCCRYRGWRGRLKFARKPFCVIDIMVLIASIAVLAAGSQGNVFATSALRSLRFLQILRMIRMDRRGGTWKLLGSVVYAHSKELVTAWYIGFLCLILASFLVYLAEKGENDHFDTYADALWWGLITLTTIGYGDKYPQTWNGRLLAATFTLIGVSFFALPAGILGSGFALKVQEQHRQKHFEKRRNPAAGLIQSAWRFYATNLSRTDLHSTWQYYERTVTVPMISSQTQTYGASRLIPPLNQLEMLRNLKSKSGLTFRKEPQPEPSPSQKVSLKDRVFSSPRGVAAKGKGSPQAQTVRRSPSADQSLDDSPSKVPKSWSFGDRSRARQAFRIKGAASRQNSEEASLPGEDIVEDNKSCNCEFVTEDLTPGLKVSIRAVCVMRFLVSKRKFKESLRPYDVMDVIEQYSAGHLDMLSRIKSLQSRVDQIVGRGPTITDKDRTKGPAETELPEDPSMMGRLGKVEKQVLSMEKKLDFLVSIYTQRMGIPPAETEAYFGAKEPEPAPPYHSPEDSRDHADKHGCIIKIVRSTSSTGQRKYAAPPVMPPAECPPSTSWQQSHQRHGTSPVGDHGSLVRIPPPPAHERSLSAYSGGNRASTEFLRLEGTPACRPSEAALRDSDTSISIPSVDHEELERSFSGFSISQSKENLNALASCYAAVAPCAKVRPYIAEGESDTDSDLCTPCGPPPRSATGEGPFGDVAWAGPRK

INSERT INTO assay_data (mol_smiles, reported_metric, recorded_result) VALUES
  ('CC[C@H](C(=O)Nc1ccccc1N1CC(c2ccc(Cl)cc2)C1)c1ccccc1', 'IC50', '0.89 µM'),
  ('CC[C@H](C(=O)Nc1ccccc1N1CC[C@H](F)C1)c1ccccc1', 'IC50', '0.21 µM');

IN: GET /values?readout=IC50&item= `CC[C@H](C(=O)Nc1ccccc1N1CCC(F)(F)CC1)c1ccccc1`
OUT: 2.8 µM
